pKd overview
Target: T1, EsCas13d, nuclease-dead (Eubacterium siraeum, UniProt B0MS50, R295A;H300A;R849A;H854A)
T1 sequence: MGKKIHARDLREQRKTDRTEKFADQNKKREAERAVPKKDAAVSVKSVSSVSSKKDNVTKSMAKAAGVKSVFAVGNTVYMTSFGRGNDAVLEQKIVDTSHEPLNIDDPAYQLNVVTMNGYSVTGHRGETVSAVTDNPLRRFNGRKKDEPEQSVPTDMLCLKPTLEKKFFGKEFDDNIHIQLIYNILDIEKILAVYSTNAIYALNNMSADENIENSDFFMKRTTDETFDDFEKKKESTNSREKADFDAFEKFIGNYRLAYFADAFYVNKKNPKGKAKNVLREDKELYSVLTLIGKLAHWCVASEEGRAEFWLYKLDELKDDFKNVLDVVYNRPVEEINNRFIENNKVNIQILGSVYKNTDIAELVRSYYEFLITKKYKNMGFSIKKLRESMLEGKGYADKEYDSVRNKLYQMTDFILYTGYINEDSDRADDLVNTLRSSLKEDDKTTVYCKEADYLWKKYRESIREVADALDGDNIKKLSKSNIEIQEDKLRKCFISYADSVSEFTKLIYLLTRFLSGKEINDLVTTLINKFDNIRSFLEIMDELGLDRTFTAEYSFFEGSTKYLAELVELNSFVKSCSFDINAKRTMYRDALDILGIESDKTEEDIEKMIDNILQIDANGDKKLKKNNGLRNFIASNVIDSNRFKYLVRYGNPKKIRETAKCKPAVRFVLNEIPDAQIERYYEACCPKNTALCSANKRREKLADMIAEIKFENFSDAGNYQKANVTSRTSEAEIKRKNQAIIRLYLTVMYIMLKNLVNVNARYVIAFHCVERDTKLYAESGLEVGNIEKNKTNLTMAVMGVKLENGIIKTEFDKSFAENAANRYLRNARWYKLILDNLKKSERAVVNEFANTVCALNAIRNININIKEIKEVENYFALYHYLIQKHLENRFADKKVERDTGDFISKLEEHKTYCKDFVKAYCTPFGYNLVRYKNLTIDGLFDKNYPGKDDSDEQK
Experiment: crRNA (strand 1, pre-loaded); Mg2+; 40 mM Tris-HCl pH 7.5, 150 mM NaCl, 6 mM MgCl2, 1 mM DTT, 0.1% Tween-20, 0.2 mg/ml BSA; 25 C; 10 min per concentration, then washed
Details: tags: His6-TwinStrep-SUMO cleaved; N-terminal SNAP kept (SNAP-Surface 488); label: 3' end held by stalled T7 RNA polymerase
Field pKd (float): negative decimal logarithm of the concentration in molar.

Field: example entries. Status: answers known.
[
  {
    "binder": "target 1 C6A,C22A (mixed) RNA 1: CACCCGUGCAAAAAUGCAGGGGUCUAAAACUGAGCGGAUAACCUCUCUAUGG RNA 2: GGGAAUGGAUCCACAUCUACGAAUUCGUAACAUAGAGAGGUUAUCAGCUCACCGAGAUCGGAAGAGCACACGU",
    "pKd": 7.98
  },
  {
    "binder": "target 1 insA 3' of 5,insU 3' of 4 (mixed) RNA 1: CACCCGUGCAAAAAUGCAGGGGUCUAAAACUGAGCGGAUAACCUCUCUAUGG RNA 2: GGGAAUGGAUCCACAUCUACGAAUUCGUACCAUAGAGAGGUUAUCCGACUUCACCGAGAUCGGAAGAGCACACGU",
    "pKd": 8.01
  }
]

--- query ---
Incoming: Entry target 2 MT 5'PFS UUG 3'PFS CUA (mixed) RNA 1: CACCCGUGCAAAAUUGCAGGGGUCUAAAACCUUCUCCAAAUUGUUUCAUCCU RNA 2: GGGAAUGGAUCCACAUCUACGAAUUCUUGAGGAUGAAACAAUUUGGAGAAGCUAAGAUCGGAAGAGCACACGU has what pKd?
Outgoing: 7.83

Values compiled from paper PMC10786891.
